Field: IC50. Provide a value for each of the molecules that follow.
# Study target: UniProt P29376
# Sequence (P29376 whole entry): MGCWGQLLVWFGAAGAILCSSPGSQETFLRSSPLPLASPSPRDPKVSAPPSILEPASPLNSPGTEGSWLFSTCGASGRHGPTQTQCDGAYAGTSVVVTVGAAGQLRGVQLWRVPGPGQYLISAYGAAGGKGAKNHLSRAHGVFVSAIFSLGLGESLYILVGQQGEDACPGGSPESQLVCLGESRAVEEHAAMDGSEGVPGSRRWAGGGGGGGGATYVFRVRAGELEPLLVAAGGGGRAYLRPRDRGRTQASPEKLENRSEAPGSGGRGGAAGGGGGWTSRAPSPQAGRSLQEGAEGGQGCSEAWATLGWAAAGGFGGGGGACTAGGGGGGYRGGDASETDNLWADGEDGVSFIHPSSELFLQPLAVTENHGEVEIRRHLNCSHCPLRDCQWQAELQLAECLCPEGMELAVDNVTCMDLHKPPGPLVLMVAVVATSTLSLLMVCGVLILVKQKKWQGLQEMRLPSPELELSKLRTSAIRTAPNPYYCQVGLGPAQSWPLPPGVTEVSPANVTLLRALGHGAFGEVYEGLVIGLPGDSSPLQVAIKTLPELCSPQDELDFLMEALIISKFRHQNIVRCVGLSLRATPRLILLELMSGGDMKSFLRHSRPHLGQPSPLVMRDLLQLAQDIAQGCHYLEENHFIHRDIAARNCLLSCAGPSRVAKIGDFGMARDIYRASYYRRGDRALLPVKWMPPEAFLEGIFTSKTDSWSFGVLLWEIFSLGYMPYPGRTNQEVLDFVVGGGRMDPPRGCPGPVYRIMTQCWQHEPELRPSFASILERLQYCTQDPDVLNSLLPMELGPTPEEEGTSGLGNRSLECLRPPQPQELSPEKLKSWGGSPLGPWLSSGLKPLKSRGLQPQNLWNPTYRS
# Method description: Inhibition of recombinant LTK (unknown origin) using poly (Glu,Tyr) 4:1 as substrate after 60 mins by ELISA
Numbers only, in nM.

// below: answered molecules
OC[C@H](Nc1cnc(-c2cc(Cl)ccc2O)c(-c2ccc3cnccc3c2)c1)c1ccccc1 45.3
Cc1n[nH]c2ccc(-c3cc(N[C@@H](CO)c4ccccc4)cnc3-c3cc(Cl)ccc3O)cc12 300
Cc1n[nH]c2ccc(-c3cc(N[C@@H](CO)c4ccccc4)cnc3-c3ccc(F)cc3O)cc12 68.5

[Q] Tell me reported IC50 for Cc1n[nH]c2ccc(-c3cc(N[C@@H](CO)c4ccccc4)cnc3-c3cc(F)ccc3O)cc12 , tested with UniProt P29376.
[A] 123

---

# Method description: Half life in Sprague-Dawley rat at 10 mg/kg, iv by LC-MS/MS method
# Assay type: ADME, organism-based
# Experimental context: in vivo
Assay readout: half-life
Answer with the number, then the unit.

[Q] I'd like to know its half-life. The compound in question is Cc1n[nH]c2ccc(-c3cc(N[C@@H](CO)c4ccccc4)cnc3-c3cc(F)ccc3O)cc12
[A] 2.39 h

---

# Study target: Fibroblast growth factor receptor 1 (Homo sapiens, UniProt P11362)
# Sequence (P11362 whole entry): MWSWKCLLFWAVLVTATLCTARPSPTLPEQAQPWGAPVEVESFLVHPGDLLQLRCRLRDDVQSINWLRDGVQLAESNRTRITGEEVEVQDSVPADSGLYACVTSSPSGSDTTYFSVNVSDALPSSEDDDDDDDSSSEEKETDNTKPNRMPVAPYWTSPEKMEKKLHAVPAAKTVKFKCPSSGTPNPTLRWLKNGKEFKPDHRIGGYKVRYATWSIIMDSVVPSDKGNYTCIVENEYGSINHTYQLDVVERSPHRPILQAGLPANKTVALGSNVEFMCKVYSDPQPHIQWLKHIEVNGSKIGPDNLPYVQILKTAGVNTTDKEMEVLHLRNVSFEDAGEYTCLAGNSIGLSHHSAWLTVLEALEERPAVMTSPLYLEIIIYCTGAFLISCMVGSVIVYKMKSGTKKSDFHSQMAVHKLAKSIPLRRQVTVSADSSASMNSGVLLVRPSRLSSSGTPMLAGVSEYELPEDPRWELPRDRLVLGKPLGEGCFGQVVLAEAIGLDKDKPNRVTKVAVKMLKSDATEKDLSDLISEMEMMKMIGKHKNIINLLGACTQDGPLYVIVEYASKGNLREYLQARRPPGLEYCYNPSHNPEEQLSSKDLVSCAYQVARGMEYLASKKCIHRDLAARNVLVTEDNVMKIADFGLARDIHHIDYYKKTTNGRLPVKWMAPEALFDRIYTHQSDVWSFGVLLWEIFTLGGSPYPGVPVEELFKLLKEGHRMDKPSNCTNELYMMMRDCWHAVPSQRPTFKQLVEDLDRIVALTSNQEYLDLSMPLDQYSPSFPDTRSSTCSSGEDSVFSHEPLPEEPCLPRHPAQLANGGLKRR
# Method description: Inhibition of recombinant human FGFR1 using poly (Glu,Tyr) 4:1 as substrate after 60 mins by ELISA
Assay readout: IC50

Cc1n[nH]c2ccc(-c3cc(N[C@@H](CO)c4ccccc4)cnc3-c3cccc(O)c3)cc12 0.0665 µM

Can you give me IC50 for all of these, one by one?
1. COc1ccccc1-c1ncc(N[C@@H](CO)c2ccccc2)cc1-c1ccc2[nH]nc(C)c2c1
2. Cc1n[nH]c2ccc(-c3cc(N[C@@H](CO)c4ccccc4)cnc3-c3cc(C(C)C)ccc3O)cc12
3. O=C1Cc2cc(-c3cc(N[C@@H](CO)c4ccccc4)cnc3-c3cc(Cl)ccc3O)ccc2N1
4. Cc1n[nH]c2ccc(-c3cc(N[C@H](CO)c4ccccc4)cnc3-c3cc(Cl)ccc3O)cc12
5. CC(=O)Nc1ccc(-c2cc(N[C@@H](CO)c3ccccc3)cnc2-c2cc(Cl)ccc2O)cc1
6. Cc1n[nH]c2ccc(-c3cc(NCCCO)cnc3-c3cc(F)ccc3O)cc12

[A]
["> 1 µM", "> 1 µM", "0.0915 µM", "> 1 µM", "> 1 µM", "> 1 µM"]

Give me IC50 for each of these molecules, listed below.
1. Cc1n[nH]c2ccc(-c3cc(N[C@@H](C)c4ccccc4)cnc3-c3cc(Cl)ccc3O)cc12
2. Cc1n[nH]c2ccc(-c3cc(N[C@@H](CO)c4ccccc4)cnc3-c3ccco3)cc12

[A]
["> 1 µM", "> 1 µM"]

---

Please go through the items and note down their IC50.
# Study target: Fibroblast growth factor receptor 1 (Homo sapiens, UniProt P11362)
# Method description: Inhibition of recombinant human FGFR1 using poly (Glu,Tyr) 4:1 as substrate after 60 mins by ELISA
One number for each entry, in nM.

Look over these answered cases.
Cc1n[nH]c2ccc(-c3cc(N[C@@H](CO)c4ccccc4)cnc3-c3ccoc3)cc12 3800
Cc1n[nH]c2ccc(-c3cc(N[C@@H](CO)c4ccccc4)cnc3-c3ccccc3O)cc12 14.9
Cc1ccc(O)c(-c2ncc(N[C@@H](CO)c3ccccc3)cc2-c2ccc3[nH]nc(C)c3c2)c1 32.3
Cc1n[nH]c2ccc(-c3cc(NC[C@H](O)c4ccccc4)cnc3-c3cc(Cl)ccc3O)cc12 168

Lab note: next molecule to report on.
[Q] Name the recorded IC50 for Cc1n[nH]c2ccc(-c3cc(N[C@@H](CO)c4ccccc4)cnc3-c3ccccc3C(N)=O)cc12 .
[A] 48.8
